test-summary: Solubility in water
Format: physicochemical
Here the recorded solubility is given for each entry.

>>> df
                    smiles_representation  measured_quantity    measured
0  CC(C)c1cccc(C(C)C)c1OC(=O)CNCC(=O)O.Cl         solubility  < 10 mg/mL

Using the record for CC(C)c1cccc(C(C)C)c1OC(=O)COCC(=O)[O-].[Na+] , report its solubility.
< 20 mg/mL

----------
test-summary: Therapeutic index, ratio of LD50 for toxicity in iv dosed drug naive Kunming mouse to ED50 for anesthetic activity in iv dosed drug naive Kunming mouse assessed as loss of righting reflex
Type: organism-based
conditions-used: in vivo, read-out: Ratio LD50/ED50
Here the recorded selectivity ratio is given for each entry.
# respond with the number and nothing more

>>> print(df.to_string())
                                   compound  measured
0  CC(C)c1cccc(C(C)C)c1OC(=O)COC(=O)CN1CCCC1.Cl       3.6
1  CC(C)c1cccc(C(C)C)c1OC(=O)COC(=O)CN(C)C.Cl       2.3
2  CC(C)c1cccc(C(C)C)c1OC(=O)COC(=O)CN1CCCCC1.Cl       4.1
3  CC(C)c1cccc(C(C)C)c1OC(=O)COC(=O)C1CCCCN1.Cl (stereo unspecified)       2.6

Using the record for CC(C)c1cccc(C(C)C)c1OC(=O)COC(=O)CN1CCN(C)CC1.Cl , report its selectivity ratio.
2.3

Using the record for CC(C)c1cccc(C(C)C)c1OC(=O)COC(=O)CCC(=O)[O-].[Na+] , report its selectivity ratio.
2.8

These measurements were taken from ChEMBL document CHEMBL4627404.
